system_tested: Trypsin (Homo sapiens, UniProt P07477+P07478+P35030)
assay: Inhibitory activity against human trypsin (using Chromozym TH as the substrate)
Type: protein assay
I'd be grateful if you could share measured Ki for these entries.
Give bare numbers, in nM.

{"compound": "COC(=N)NS(=O)(=O)C(F)(F)C(F)(F)C(F)(F)C(F)(F)C(F)(F)C(F)(F)C(F)(F)C(F)(F)F", "Ki, nM": 2135}
{"compound": "N=C(N)NNS(=O)(=O)c1ccc([N+](=O)[O-])c(Cl)c1", "Ki, nM": 1010}
{"compound": "CC(=O)Nc1ccc(S(=O)(=O)NN=C(N)N)cc1", "Ki, nM": 1025}
{"compound": "N=C(N)NS(=O)(=O)c1cc(Cl)cc(Cl)c1O", "Ki, nM": 1420}
{"compound": "Cc1ccc(S(=O)(=O)NC(=O)N[C@@H](Cc2ccccc2)C(=O)N2CCCC2C(=O)Nc2ccc(S(=O)(=O)N=C(N)N)cc2)cc1 (stereo not given in full)", "Ki, nM": 1315}
{"compound": "COC(=N)NS(=O)(=O)c1cccc(C(=O)O)c1", "Ki, nM": 1595}

Quick one: give me Ki for each item below, same order please.
1. N=C(N)NNS(=O)(=O)c1cccc(C(=O)O)c1
2. COC(=N)NS(=O)(=O)c1ccc(C(=O)O)cc1

Result:
1: 1520; 2: 1340

Could I get Ki for every one of these entries?
1. Cc1ccc(S(=O)(=O)N=C(N)N)cc1
2. COC(=N)NS(=O)(=O)c1ccc(NC(=O)[C@@H](Cc2ccccc2)NC(=O)OCc2ccccc2)cc1

Result:
1: 1810; 2: 1425
